Target entity: HpThyX (Helicobacter pylori)
Construct: His6; made in house; host or cells: Escherichia coli BL21 (plasmid pGL2, pBAD promoter)
Sequence (O26061 whole entry): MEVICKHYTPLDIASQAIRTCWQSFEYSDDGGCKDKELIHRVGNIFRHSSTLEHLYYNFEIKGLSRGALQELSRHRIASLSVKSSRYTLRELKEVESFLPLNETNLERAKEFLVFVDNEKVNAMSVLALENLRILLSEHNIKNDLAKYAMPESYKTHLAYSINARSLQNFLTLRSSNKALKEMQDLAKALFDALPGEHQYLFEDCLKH
Method notes: tritium release (deprotonation) assay of [5-3H]dUMP
Assay type: biochemical
Test context: 20 min; semi-quantitative deprotonation assay; remaining activity, lower = stronger inhibition; read-out: inhibition against ThyX (% remaining activity relative to control)
Description: HpThyX activity was assessed by measuring either deprotonation of [5-^3H]dUMP or NAPDH oxidation activities. In the tritium release (deprotonation) assays, typical reactions contained 10 mM MgCl2, 10% (v/v) glycerol, 500 µM FAD, 2 mM NADPH, 1 mM CH2H4Folate and 10 mM β-mercaptoethanol in 50 mM HEPES (pH 8). Different concentrations of dUMP were also included in the reaction mixtures. […]
Entries and their remaining activity at 100 µM values follow.
Measurement type: remaining activity at 100 µM (%)

item_smiles=O=C1C(O)=C(C=Cc2ccc(F)cc2)C(=O)c2ccccc21 measurement_type="remaining activity at 100 µM" reported=49.7
item_smiles=O=C1C(O)=C(Cc2ccco2)C(=O)c2ccccc21 measurement_type="remaining activity at 100 µM" reported=76.4
item_smiles=O=C1C(O)=C(Cc2cc(F)cc(F)c2)C(=O)c2ccccc21 measurement_type="remaining activity at 100 µM" reported=74.3
item_smiles=O=C1C(O)=C(Cc2ccc(Oc3ccccc3)cc2)C(=O)c2ccccc21 measurement_type="remaining activity at 100 µM" reported=61.8
item_smiles=O=C1C(O)=C(Cc2ccc(F)cc2)C(=O)c2ccccc21 measurement_type="remaining activity at 100 µM" reported=66.3
item_smiles=O=C1C(Cl)=C(Nc2ccc(F)cc2)C(=O)c2ccccc21 measurement_type="remaining activity at 100 µM" reported=21.1
item_smiles=COc1ccc(CC2=C(O)C(=O)c3ccccc3C2=O)cc1OC measurement_type="remaining activity at 100 µM" reported=75.1
item_smiles=O=C1C(O)=C(Cc2cccs2)C(=O)c2ccccc21 measurement_type="remaining activity at 100 µM" reported=36.4
item_smiles=O=C1C(O)=C(Cc2ccc(F)c(Cl)c2)C(=O)c2ccccc21 measurement_type="remaining activity at 100 µM" reported=74.5
item_smiles=CCCCC1=C(O)C(=O)c2ccccc2C1=O measurement_type="remaining activity at 100 µM" reported=64.3
